assay: Selectivity index, ratio of CC50 for african green monkey Vero 76 cells to EC50 for Venezuelan equine encephalitis virus TC83; format: toxicity, cell-based; settings: read-out: Ratio CC50/EC50
EXPERIMENTAL_READOUT: selectivity ratio

>>> test_value("COc1cccc(-n2c(CN3CCNCC3)nc3ccc([N+](=O)[O-])cc3c2=O)c1")
"> 9.8"
>>> test_value("CN1CCN(C)/C(=N/c2ccc(F)cc2C(=O)Nc2ccccc2)C1")
"> 7.8"
>>> test_value("CN1CCN(C)/C(=N/c2ccc(C(F)(F)F)cc2C(=O)Nc2ccccc2)C1")
"> 2.2"
>>> test_value("CCN1CCN(Cc2nc3ccc([N+](=O)[O-])cc3c(=O)n2-c2cccc(F)c2)CC1")
"> 125"
>>> test_value("CCN1CCN(Cc2nc3ccc([N+](=O)[O-])cc3c(=O)n2-c2ccc(F)cc2)CC1")
"> 62.5"
>>> test_value("CC(C)N1CCN(Cc2nc3ccc([N+](=O)[O-])cc3c(=O)n2-c2ccccc2F)CC1")
"> 11.4"

-- ask Report selectivity ratio for CN1CCN(C)/C(=N/c2ccc([N+](=O)[O-])cc2C(=O)NCc2ccccc2)C1 please.
-- reply > 13.5

-- ask Fill in: selectivity ratio of CN1CCN(C)/C(=N/c2ccc([N+](=O)[O-])cc2C(=O)Nc2ccsc2)C1 is ___
-- reply 100
